TEST_SYSTEM: Aldo-keto reductase family 1 member B1 (Homo sapiens, UniProt P15121)
EXPERIMENT_DESCRIPTION: Inhibition of human muscle recombinant aldose reductase by spectrophotometry
For each of the compounds below, state its pIC50.
Give bare numbers, as −log10 of the molar value.

Previously resolved entries follow.
Cc1c(Br)c(O)c(O)c(Br)c1Br	5.50
O=Cc1c(Br)c(O)c(O)c(Br)c1Br	6.18
Oc1cc(Br)c(COCc2c(Br)c(O)c(O)c(Br)c2Br)c(Br)c1O	6.78
Oc1c(Br)cc(Cc2c(Br)c(O)c(O)c(Br)c2Br)c(Br)c1O	6.20

In: Would you mind telling me what pIC50 value was observed for "Oc1c(O)c(Br)c(Cc2c(Br)c(O)c(O)c(Br)c2Br)c(Br)c1Br" ?
Out: 6.25

Every entry's value here was drawn from ChEMBL document CHEMBL1158746.
